Below: a set of entries, each annotated with reported EC50.
# System: Jurkat T cells
# TEST_SUMMARY: Jurkat T activation assay (IL-2 release, ELISA)
# Assay type: cell-based
# SETTINGS: IL-2 release of Jurkat T cells, Anti-Human CD3/CD28 stimulation, 48 hours, IL-2 ELISA
A complete answer gives the number followed by the unit.

// below: answered molecules
CC1CC(c2cccc(-c3cnc4c(C(F)(F)F)cc(CN5CCC[C@H](C)C5)cn4c3=O)c2)(c2nncn2C)C1 (stereo partly shown) : 634 nM
Cc1c(F)c(CNC2(C)CCC2)cc2c(=O)c(-c3cccc([C@]4(c5nncn5C)C[C@@H](C)C4)c3)coc12 : 555 nM
C[C@H]1CCCN(Cc2cc(C(F)(F)F)c3ncc(-c4cccc([C@]5(c6nncn6C)C[C@@H](C)C5)c4)c(=O)n3c2)C1 [Compound 2-P1] : 426 nM

Task: Given Cc1cc(CN2CCC[C@H](C)C2)cc2c(=O)c(-c3cncc(C4(c5nncn5C)CC(C)C4)c3)coc12 (stereo partly shown) , state its recorded EC50.
Output: 265 nM

----------
# MEASUREMENT_TARGET: Cbl-b protein and UbcH5B-Ub (Homo sapiens (Human))
# Sequence (Q13191 whole entry, species assumed): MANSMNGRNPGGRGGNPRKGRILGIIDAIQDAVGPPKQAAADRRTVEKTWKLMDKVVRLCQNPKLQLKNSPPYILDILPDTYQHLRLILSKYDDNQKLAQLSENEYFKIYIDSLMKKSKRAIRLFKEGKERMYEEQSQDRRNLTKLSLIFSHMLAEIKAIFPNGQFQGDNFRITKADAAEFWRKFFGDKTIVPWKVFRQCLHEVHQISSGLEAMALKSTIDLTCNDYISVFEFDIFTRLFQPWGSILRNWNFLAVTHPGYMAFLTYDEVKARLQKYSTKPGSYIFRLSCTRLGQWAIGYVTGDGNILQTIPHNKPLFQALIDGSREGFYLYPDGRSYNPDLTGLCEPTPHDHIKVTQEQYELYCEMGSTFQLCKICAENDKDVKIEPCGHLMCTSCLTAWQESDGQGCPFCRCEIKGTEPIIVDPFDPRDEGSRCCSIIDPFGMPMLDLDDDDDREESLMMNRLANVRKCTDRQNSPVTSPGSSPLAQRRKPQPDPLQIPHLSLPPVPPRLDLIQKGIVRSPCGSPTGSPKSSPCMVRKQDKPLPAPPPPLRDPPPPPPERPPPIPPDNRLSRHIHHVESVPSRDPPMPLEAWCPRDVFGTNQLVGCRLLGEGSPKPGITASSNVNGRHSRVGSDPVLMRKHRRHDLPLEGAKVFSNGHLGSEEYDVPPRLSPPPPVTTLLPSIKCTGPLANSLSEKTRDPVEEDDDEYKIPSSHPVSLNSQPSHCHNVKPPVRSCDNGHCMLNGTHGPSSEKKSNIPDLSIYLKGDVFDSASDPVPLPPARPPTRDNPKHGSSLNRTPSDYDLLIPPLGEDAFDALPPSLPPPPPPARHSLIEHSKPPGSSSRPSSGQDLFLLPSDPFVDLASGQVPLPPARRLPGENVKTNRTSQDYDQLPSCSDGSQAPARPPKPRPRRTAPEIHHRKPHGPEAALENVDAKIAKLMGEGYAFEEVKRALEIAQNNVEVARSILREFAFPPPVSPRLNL
# TEST_SUMMARY: Cbl-b activity assay (HTRF, interaction between Cbl-b protein and UbcH5B-Ub)
# SETTINGS: inhibition of interaction between Biotin-Cbl-b protein and Eu-Ubquitin-UbcH5B, HTRF signal 665 nm/615 nm
The entries below are paired with their reported pIC50.
Recall that pIC50 is obtained by taking minus log10 of the concentration measured in molar.

Sample answers from the record:
CC1CC(c2cccc(-c3cnc4c(C(F)(F)F)cc(CN5CCC[C@H](C)C5)cn4c3=O)c2)(c2nncn2C)C1 (stereo partly shown) [Compound 2] : 7.39
Cc1cc(CN2CCC[C@H](C)C2)cc2c(=O)c(-c3cccc([C@](F)(c4nncn4C)C4CC4)c3)coc12 [Compound 120-P1] : 6.67
CC1CC(c2cccc(-c3cnc4c(Cl)cc(CN5CCC[C@H](C)C5)cn4c3=O)c2)(c2nncn2C)C1 (stereo partly shown) [Compound 10] : 7.37
CC1CC(c2cccc(-c3cnc4c(Br)cc(CN5CCC[C@H](C)C5)cn4c3=O)c2)(c2nncn2C)C1 (stereo partly shown) [Compound 14] : 7.53
C[C@H]1CCCN(Cc2cc(C(F)(F)F)c3ncc(-c4cccc(C(c5nncn5C)C5CC5)c4)c(=O)n3c2)C1 (stereo partly shown) [Compound 63] : 7.38

Task: Form field: pIC50 recorded for Cc1c(F)c(CN2CCC[C@H](C)C2)cc2c(=O)c(-c3cccc(C(c4nncn4C)C4CC4)c3)coc12 (stereo partly shown) [Compound 124] with Cbl-b protein and UbcH5B-Ub (Homo sapiens (Human)) (enter value)
Output: 7.71

Task: Find pIC50 (Cbl-b protein and UbcH5B-Ub (Homo sapiens (Human))) for the entry Cc1cc(CN2CCC[C@H](C)C2)cc2c(=O)c(-c3cc(C(F)(F)F)cc(C4(c5nncn5C)CC(C)C4)c3)coc12 (stereo partly shown) [Compound 66]
Output: 7.05

Task: Param readout= pIC50; system= Cbl-b protein and UbcH5B-Ub (Homo sapiens (Human)); entry= Cc1c(F)c(CNC2(C)CCC2)cc2c(=O)c(-c3cccc([C@]4(c5nncn5C)C[C@@H](C)C4)c3)coc12 [Compound 122] ; returns value.
Output: 7.91

Task: Request: pIC50, test system Cbl-b protein and UbcH5B-Ub (Homo sapiens (Human)), entry CC1CC(c2cccc(-c3cnc4c(C(F)(F)F)cc(CN5CC6CC(C)(C6)C5)cn4c3=O)c2)(c2nncn2C)C1 (stereo not shown) [Compound 62]
Output: 7.63

Task: Lab request: please report pIC50 under test system Cbl-b protein and UbcH5B-Ub (Homo sapiens (Human)) for CC1CC(c2cccc(-c3cnc4sc(CN5CCC[C@H](C)C5)cn4c3=O)c2)(c2nncn2C)C1 (stereo partly shown) [Compound 59]
Output: 7.37

Task: # returns recorded pIC50 (system: Cbl-b protein and UbcH5B-Ub (Homo sapiens (Human))) for Cc1cc(CN2CCC[C@H](C)C2)cc2c(=O)c(-c3cccc(C(F)(c4nncn4C)C4CC4)c3)coc12 (stereo partly shown) [Compound 120]
Output: 7.76

Task: API: value(readout= pIC50, system= Cbl-b protein and UbcH5B-Ub (Homo sapiens (Human)), query= Cc1cc(CN2CCC[C@H](C)C2)cc2c(=O)c(-c3cccc(C(F)(c4nncn4C)C(F)(F)F)c3)coc12 (stereo partly shown) [Compound 128] )
Output: 7.54

Task: Please provide the recorded pIC50 for CC1CC(c2cccc(-c3cnc4c(C(F)(F)F)cc(CN5CCN(C)C[C@@H]5C(C)C)cn4c3=O)c2)(c2nncn2C)C1 (stereo partly shown) [Compound 89] , tested on Cbl-b protein and UbcH5B-Ub (Homo sapiens (Human)).
Output: 7.38

Task: What reported pIC50 corresponds to CC1CC(c2cncc(-c3coc4c(C5CC5)cc(CN5CCC[C@H](C)C5)cc4c3=O)c2)(c2nncn2C)C1 (stereo partly shown) [Compound 75] on Cbl-b protein and UbcH5B-Ub (Homo sapiens (Human))?
Output: 8.13

Task: Request: pIC50, test system Cbl-b protein and UbcH5B-Ub (Homo sapiens (Human)), entry Cc1cc(CN2CCC[C@H](C)C2)cn2c(=O)c(-c3cccc(C4(c5nncn5C)CC(C)C4)c3)cnc12 (stereo partly shown) [Compound 11]
Output: 7.51

Task: State its pIC50 on Cbl-b protein and UbcH5B-Ub (Homo sapiens (Human)): Cc1cc(CN2CCN(C)C[C@@H]2C(C)C)cc2c(=O)c(-c3cccc(C4(c5nncn5C)CC(C)C4)c3)coc12 (stereo partly shown) [Compound 88]
Output: 7.49

Task: Param readout = pIC50; param system = Cbl-b protein and UbcH5B-Ub (Homo sapiens (Human)); param query = Cc1cc(CN2CCC[C@H](C)C2)cc2c(=O)c(-c3cncc(C4(c5nncn5C)CC(C)C4)c3)coc12 (stereo partly shown) [Compound 65] ; response: value
Output: 7.77

Task: Checklist item: pIC50 tested on Cbl-b protein and UbcH5B-Ub (Homo sapiens (Human)), entry Cc1cc(CN2CCC[C@H](C)C2)cc2c(=O)c(-c3cccc(C(c4nncn4C)C4CC4)c3)coc12 (stereo partly shown) [Compound 64] , value?
Output: 7.42

Task: Item: CC1CC(c2cccc(-c3cnc4c(C5CC5)cc(CN5CCC[C@H](C)C5)cn4c3=O)c2)(c2nncn2C)C1 (stereo partly shown) [Compound 13] Test system: Cbl-b protein and UbcH5B-Ub (Homo sapiens (Human)) Read-out: pIC50 Value: ?
Output: 7.50

Task: Field: pIC50 (Cbl-b protein and UbcH5B-Ub (Homo sapiens (Human))). Entry: CC(NC1(C)CCC1)c1cc(C(F)(F)F)c2ncc(-c3cccc([C@]4(c5nncn5C)C[C@@H](C)C4)c3)c(=O)n2c1 (stereo partly shown) [Compound 126]
Output: 7.95

Task: Hi! What's the reported pIC50 for CC1CC(c2cccc(-c3coc4c(C5CC5)cc(CN5CCC[C@H](C)C5)cc4c3=O)c2)(c2nncn2C)C1 (stereo partly shown) [Compound 74] on Cbl-b protein and UbcH5B-Ub (Homo sapiens (Human))?
Output: 7.72

Task: Lab note: need pIC50 with Cbl-b protein and UbcH5B-Ub (Homo sapiens (Human)) for entry CC1CC(c2cccc(-c3cnc4c(F)cc(CN5CCC[C@H](C)C5)cn4c3=O)c2)(c2nncn2C)C1 (stereo partly shown) [Compound 9] , please look it up.
Output: 6.89

Task: Reported pIC50 for Cbl-b protein and UbcH5B-Ub (Homo sapiens (Human)), given Cc1cc(CN2CCC[C@H](C)C2)cc2c(=O)c(-c3cccc(C4(c5nncn5C)CC(F)C4)c3)coc12 (stereo partly shown) [Compound 69] ?
Output: 7.82

Task: // fetch Cbl-b protein and UbcH5B-Ub (Homo sapiens (Human)) pIC50 for Cc1cc(CN2CCC[C@H](C)C2)cc2c(=O)c(-c3cccc([C@@](F)(c4nncn4C)C4CC4)c3)coc12 [Compound 120-P2]
Output: 8.11

Task: Missing value: pIC50, Cbl-b protein and UbcH5B-Ub (Homo sapiens (Human)), entry Cc1cc(CN2CCC[C@H](C)C2)cc2c(=O)c(-c3cccc(C4(c5nncn5C)CCO4)c3)coc12 (stereo partly shown) [Compound 71] . Fill in?
Output: 6.69

Task: Entry C[C@H]1CCCN(Cc2cc(C(F)(F)F)c3ncc(-c4cccc(C5(Cc6nncn6C)COC5)c4)c(=O)n3c2)C1 [Compound 5] , system Cbl-b protein and UbcH5B-Ub (Homo sapiens (Human)): what pIC50 was measured?
Output: 6.35

Task: Item Cc1cc(CN2CCC[C@H](C)C2)cc2c(=O)c(-c3cccc(C(C)(C)c4nncn4C)c3)coc12 [Compound 67] with Cbl-b protein and UbcH5B-Ub (Homo sapiens (Human)) - pIC50?
Output: 7.02

Task: Query pIC50 on Cbl-b protein and UbcH5B-Ub (Homo sapiens (Human)) for Cc1cc(CN2CCC(F)(F)[C@H](C)C2)cc2c(=O)c(-c3cccc(C(F)(c4nncn4C)C4CC4)c3)coc12 (stereo partly shown) [Compound 129]
Output: 7.75
